# subject.of.test: phosphorylated FGFR3 (SEQ ID NO: 5, amino acids 449 to 759) (Homo sapiens (Human))
# Sequence (P22607 449-759): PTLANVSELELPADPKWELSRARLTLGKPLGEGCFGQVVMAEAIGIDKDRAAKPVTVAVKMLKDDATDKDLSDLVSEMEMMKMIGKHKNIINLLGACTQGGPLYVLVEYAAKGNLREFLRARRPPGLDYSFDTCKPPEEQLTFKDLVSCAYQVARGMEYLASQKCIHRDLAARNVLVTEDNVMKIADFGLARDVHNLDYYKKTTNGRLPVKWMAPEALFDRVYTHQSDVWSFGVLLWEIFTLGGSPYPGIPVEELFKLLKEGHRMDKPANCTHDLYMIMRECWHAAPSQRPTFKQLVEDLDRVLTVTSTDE
pIC50: −log10 of the molar value.
Parameter threshold = 8. Response is TRUE when pIC50 meets or exceeds it, else FALSE.

Is reported pIC50 greater than or equal to 8 here: C=CC(=O)N[C@H]1CC[C@H](C(=O)N2CCC(n3cc(-c4cc(OC)c5c(C#N)cnn5c4)cn3)CC2)CC1
FALSE

Is reported pIC50 greater than or equal to 8 here: C=CC(=O)N1CC(F)(C(=O)N2CCN(c3cc(C)c(-c4cc(OC)c5c(C#N)cnn5c4)cn3)CC2)C1
FALSE

Is reported pIC50 greater than or equal to 8 here: COc1cc(-c2cnn(C3CCN(C(=O)C4(OC)CN(C(=O)/C=C/CN(C)C)C4)CC3)c2C)cn2ncc(C#N)c12
TRUE

Is reported pIC50 greater than or equal to 8 here: C=CC(=O)N1CC2(CCC(C(=O)N3CCC(n4cc(-c5cc(OC)c6c(C#N)cnn6c5)cn4)CC3)CC2)C1
TRUE

Is reported pIC50 greater than or equal to 8 here: C=CC(=O)N1CCC(F)(C(=O)N2CCC(n3cc(-c4cc(OC)c5c(C#N)cnn5c4)cn3)CC2)C1 (stereo not drawn)
TRUE

Is reported pIC50 greater than or equal to 8 here: C=CC(=O)N1CC(CN2CCC(n3ncc(-c4cc(OC)c5c(C#N)cnn5c4)c3C)CC2)(OC)C1
TRUE

Is reported pIC50 greater than or equal to 8 here: C=CC(=O)N1CC(C(=O)N2CCC(n3cc(-c4cc(-c5ccc(NC(=O)C6CC6)cc5F)c5c(C#N)cnn5c4)cn3)CC2)C1
TRUE

Is reported pIC50 greater than or equal to 8 here: C=CC(=O)N1CC(C(=O)N2CCC(n3cc(-c4cc(C(C)C)c5c(C#N)cnn5c4)cn3)CC2)C1
FALSE

Is reported pIC50 greater than or equal to 8 here: C=CC(=O)N1CC(F)(C(=O)N2CCN(c3ccc(-c4cc(OC)c5c(C#N)cnn5c4)cn3)CC2)C1
TRUE

Is reported pIC50 greater than or equal to 8 here: C#CC(=O)N1CC(C(=O)N2CCC(n3cc(-c4cc(OC)c5c(C#N)cnn5c4)cn3)CC2)C1
TRUE

Is reported pIC50 greater than or equal to 8 here: C=CC(=O)N[C@H]1C[C@H](C(=O)N2CC[C@H](n3cc(-c4cc(OC)c5c(C#N)cnn5c4)cn3)C2)C1
TRUE

Is reported pIC50 greater than or equal to 8 here: C=CC(=O)N1CC(OC)(C(=O)N2CCC(n3nc(C)c(-c4cc(OC)c5c(C#N)cnn5c4)c3C)CC2)C1
FALSE

Is reported pIC50 greater than or equal to 8 here: C=CC(=O)N1CC(C(=O)N2C3CCC2CN(c2ccc(-c4cc(OC)c5c(C#N)cnn5c4)cn2)C3)C1
TRUE

###

Could you please report measured pIC50 for the items listed next?
pIC50 here is simply -log10 of the concentration when that concentration is written in mol/L.

Which measured pIC50 belongs to C=CC(=O)N1CC(CN2CC(n3cc(-c4cc(OC)c5c(C#N)cnn5c4)cn3)C2)C1 [Example 81] , tested on dephosphorylated FGFR1 (SEQ ID NO: 1, amino acids 458 to 765) (Homo sapiens (Human))?
6.73

Which measured pIC50 belongs to C=CC(=O)N1CCC(C(=O)N2CCN(c3ccc(-c4cc(OC)c5c(C#N)cnn5c4)cn3)CC2)CC1 [Example 109] , tested on dephosphorylated FGFR1 (SEQ ID NO: 1, amino acids 458 to 765) (Homo sapiens (Human))?
7.25

Which measured pIC50 belongs to C=CC(=O)N1CCC[C@@H](C(=O)N2CCC(n3cc(-c4cc(OC)c5c(C#N)cnn5c4)cn3)CC2)C1 [Example 17] , tested on dephosphorylated FGFR1 (SEQ ID NO: 1, amino acids 458 to 765) (Homo sapiens (Human))?
7.35

Which measured pIC50 belongs to C=CC(=O)N1CC[C@@H](C(=O)N2CC[C@@H](n3cc(-c4cc(OC)c5c(C#N)cnn5c4)cn3)C2)C1 [Example 58] , tested on dephosphorylated FGFR1 (SEQ ID NO: 1, amino acids 458 to 765) (Homo sapiens (Human))?
6.54

Which measured pIC50 belongs to C=CC(=O)N1CC(C(=O)N2CCC(n3cc(-c4cc(OCC)c5c(C#N)cnn5c4)cn3)CC2)C1 [Example 126] , tested on dephosphorylated FGFR1 (SEQ ID NO: 1, amino acids 458 to 765) (Homo sapiens (Human))?
6.83

Which measured pIC50 belongs to C=CC(=O)N[C@H]1C[C@@H](C(=O)N2CC(n3cc(-c4cc(OC)c5c(C#N)cnn5c4)cn3)C2)C1 [Example 80] , tested on dephosphorylated FGFR1 (SEQ ID NO: 1, amino acids 458 to 765) (Homo sapiens (Human))?
6.76

Which measured pIC50 belongs to C=CC(=O)N1CC(F)(C(=O)N2CCC(n3cc(-c4cc(OC)c5c(Cl)cnn5c4)cn3)CC2)C1 [Example 121] , tested on dephosphorylated FGFR1 (SEQ ID NO: 1, amino acids 458 to 765) (Homo sapiens (Human))?
6.94

Which measured pIC50 belongs to C=CC(=O)N(C)c1ccc(CN2CCC(n3cc(-c4cc(OC)c5c(C#N)cnn5c4)cn3)CC2)cc1 [Example 10] , tested on dephosphorylated FGFR1 (SEQ ID NO: 1, amino acids 458 to 765) (Homo sapiens (Human))?
7.25

Which measured pIC50 belongs to COc1cc(-c2cnn(C3CCN(C(=O)C4CN(C(=O)C5=CCC5)C4)CC3)c2)cn2ncc(C#N)c12 [Example 137] , tested on dephosphorylated FGFR1 (SEQ ID NO: 1, amino acids 458 to 765) (Homo sapiens (Human))?
7.31

Which measured pIC50 belongs to C#CC(=O)N1CC(C(=O)N2CCC(n3cc(-c4cc(OC)c5c(C#N)cnn5c4)cn3)CC2)C1 [Example 138] , tested on dephosphorylated FGFR1 (SEQ ID NO: 1, amino acids 458 to 765) (Homo sapiens (Human))?
7.57

Which measured pIC50 belongs to C=CC(=O)N1CC2(CCC(C(=O)N3CCC(n4cc(-c5cc(OC)c6c(C#N)cnn6c5)cn4)CC3)CC2)C1 [Example 21] , tested on dephosphorylated FGFR1 (SEQ ID NO: 1, amino acids 458 to 765) (Homo sapiens (Human))?
7.24

Which measured pIC50 belongs to COc1cc(-c2cnn(C3CCN(C(=O)C4(OC)CN(C(=O)/C=C/CN(C)C)C4)CC3)c2C)cn2ncc(Cl)c12 [Example 171] , tested on dephosphorylated FGFR1 (SEQ ID NO: 1, amino acids 458 to 765) (Homo sapiens (Human))?
6.47

Which measured pIC50 belongs to C=CC(=O)N1CC(OC)(C(=O)N2CCC(n3ncc(-c4cc(OC)c5c(Cl)cnn5c4)c3C)CC2)C1 [Example 117] , tested on dephosphorylated FGFR1 (SEQ ID NO: 1, amino acids 458 to 765) (Homo sapiens (Human))?
6.09

Which measured pIC50 belongs to COc1cc(-c2cnn(C3CCN(C(=O)C4(F)CN(C(=O)/C=C/CN(C)C)C4)CC3)c2C)cn2ncc(C#N)c12 [Example 153] , tested on dephosphorylated FGFR1 (SEQ ID NO: 1, amino acids 458 to 765) (Homo sapiens (Human))?
6.68

Which measured pIC50 belongs to C=CC(=O)N1CCN(c2cccc(-n3cc(-c4cc(OC)c5c(C#N)cnn5c4)cn3)c2)CC1 [Example 27] , tested on dephosphorylated FGFR1 (SEQ ID NO: 1, amino acids 458 to 765) (Homo sapiens (Human))?
6.72
